System: CCRF-CEM cells
PROTOCOL_TEXT: Effect of cytidine deaminase on cytotoxicity for CCRF-CEM cells
PROTOCOL_CONDITIONS: Homo sapiens, CCRF-CEM, read-out: IC50 (molar conc. for 50% inhib. of cell growth), with cytidine deaminase
pIC50: −log10 of the molar value.

- MOLECULE: "Nc1ccn([C@@H]2O[C@H](CO)[C@@H](O)[C@@H]2O[N+](=O)[O-])c(=O)n1 [Nitrara-C]"
  SYSTEM_UNDER_TEST: "CCRF-CEM cells"
  pIC50: 6.22
